Target: T1, Cynomolgus monkey CD98 ECD with C-terminal His-tag (cynomolgus monkey, UniProt P08195 105-529 (human entry))
T1 construct: also called cyCD98 ECD; recombinant cynomolgus monkey CD98 extracellular domain
T1 chain: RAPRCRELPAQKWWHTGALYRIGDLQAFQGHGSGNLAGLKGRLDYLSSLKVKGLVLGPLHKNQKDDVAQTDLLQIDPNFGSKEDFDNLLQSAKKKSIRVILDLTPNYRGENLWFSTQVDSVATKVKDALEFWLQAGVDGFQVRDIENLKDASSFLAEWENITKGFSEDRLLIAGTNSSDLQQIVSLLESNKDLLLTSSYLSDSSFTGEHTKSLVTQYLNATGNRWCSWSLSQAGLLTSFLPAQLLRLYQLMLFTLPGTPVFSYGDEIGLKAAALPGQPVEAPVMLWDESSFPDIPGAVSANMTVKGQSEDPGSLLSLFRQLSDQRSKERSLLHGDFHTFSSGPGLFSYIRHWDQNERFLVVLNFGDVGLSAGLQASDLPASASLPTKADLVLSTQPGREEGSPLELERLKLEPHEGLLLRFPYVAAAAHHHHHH
Assay: SPR Biacore, anti-Fc capture of mAb, CD98 ECD analyte
I'd appreciate it if you marked entries label 1 when kon is lower than 60000 M⁻¹ s⁻¹ and label 0 when it is not.

Sample answers from the record:
Recombinant anti-CD98 chimeric antibody chAb11 (antibody, human IgG1, V domains shown) VH: EVQLVESGGGLVQPGRSLKLSCAASGFTFSDYAMAWVRQAPKKGLEWVAGIIYDGRGTYYRDSVKGRFTISRDNAKSTLYLQMDSLRSEDTATYYCARQGDGTYYYWGYFDYWGQGVMVTVSS VL: DIVMTQSPSSLAVSAGETVTINCRSSQSLLSSGNQKNYLAWYQQKPGQSPKLLIYWASTRQSGVPDRFIGSGSGTDFTLTISSVQAEDLAIYYCQQYYDTPYTFGAGTKLELK    label 1
Recombinant anti-CD98 chimeric antibody chAb13 (antibody, human IgG1, V domains shown, also called chAbl 3) VH: QVQLKESGPGLVQPSQTLSLTCTVSGFSLSSYGVIWVRQPPGKGLEWMGIIWANGNTNYNSALKSRLSISRDTSKSQVYLKMNSLQTEDTATYYCARHYYDGTHYYGYFDYWGQGVMVTVSS VL: DTVMTQTPSSQAVSAGEKVTMSCKSSQSLLYSENKKKYLAWYQQKPGQSPKLLIYWASTRESGVPDRFIGSGSGTDFTLTISSVQAEDLAVYYCQQYYNFPYTFGAGTKLELK    label 0
Recombinant anti-CD98 chimeric antibody chAb8 (antibody, human IgG1, V domains shown) VH: EVQLVESGGGLVQPGRSLKLSCAASGFTFSDYAMAWVRQAPKKGLEWVASIIYDGRGTYYRDSVKGRFTISRDNAKSTLYLQMDSLRSEDTATYYCARQGDGTYYYWGYFDYWGQGVMVTVSS VL: DIVMTQSPSSLAVSAGETVTINCKSSQSLLSSGNQKNYLAWYQQKPGQSPKLLIYWASTRQSGVPDRFIGSGSGTDFTLTINSVQAEDLAIYYCQQYYDTPYTFGAGTKLELK    label 1

Switching to the query record.
Qu. In the record for Recombinant anti-CD98 chimeric antibody chAb6 (antibody, human IgG1, V domains shown) VH: QVQLKESGPGLAQPSQTLSLTCTVSGFSLSTYGVIWLRQPPGKGLEWMGVIWTNGNTNYNSTLKSRLSISRDTSESQVYLQMNSLQTEDTATYYCARHYYDGAYYYGYFDYWGQGVMVTVSS VL: DIVMTQTPSSQAVSAGEKVTMSCKSSQSLLYSENKKNYLAWYQQKPGQSPKLLIYWASTRESGVPDRFIGSGSGTDFTLTISSVQAEDLAVYYCQQYYYFPYTFGAGTKLELK , is kon less than 60000 M⁻¹ s⁻¹?
Ans. label 1
